B1: tRNA (parent)
chain: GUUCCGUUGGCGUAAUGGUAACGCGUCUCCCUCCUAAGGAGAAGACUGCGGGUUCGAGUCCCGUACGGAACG

- Variants of: B1
- protocol_details: yeast fitness relative to wild type (ratio to wild type); higher = fitter; tRNA-Arg(CCU), competitive growth, 37 C, YPD
Fewer inactive variants are shown than the library holds.
yeast fitness by entry:
measured_parameter: yeast fitness

change: G25A A45G G52A U54A
lt_gt_eq: ≤
value: 0.5

change: C31A G67U
lt_gt_eq: =
value: 0.755

change: C5U A14C G41C
lt_gt_eq: =
value: 0.613

change: A20U C61A
lt_gt_eq: =
value: 0.646

change: C5G U8G A43C G48A
lt_gt_eq: =
value: 0.547

change: C30G
lt_gt_eq: =
value: 0.68

change: C11A C22G A45C G50A
lt_gt_eq: =
value: 0.741

change: U2G C4A U16C C31U A70U
lt_gt_eq: ≤
value: 0.5

change: G25A C31U G38C C62U
lt_gt_eq: =
value: 0.697

change: C27U C49U U54A A57G C66A
lt_gt_eq: =
value: 0.629

change: G6C U35A A40U G41C C49A
lt_gt_eq: ≤
value: 0.5

change: U16A G44C
lt_gt_eq: =
value: 0.751

change: A14C C33U
lt_gt_eq: =
value: 0.64

change: G52C C55U G63A A65U
lt_gt_eq: ≤
value: 0.5

change: G12C A42U
lt_gt_eq: =
value: 0.698

change: U13C A45C G56A
lt_gt_eq: =
value: 0.743

change: A37C G51A
lt_gt_eq: =
value: 0.605

change: U2C C29A G63A
lt_gt_eq: ≤
value: 0.5

change: C31G A40G A45C U53A
lt_gt_eq: ≤
value: 0.5

change: A20U C66A
lt_gt_eq: =
value: 0.612

change: A21U U26A
lt_gt_eq: =
value: 0.722

change: G38A A43G C46U C49U
lt_gt_eq: =
value: 0.611

change: C11U C27A
lt_gt_eq: =
value: 0.791

change: G6A U13C
lt_gt_eq: =
value: 0.937

change: G38U C60A
lt_gt_eq: =
value: 0.541

change: U19C G68C
lt_gt_eq: =
value: 0.83

change: G9C U13A G25A A40C A57C C61U G67A
lt_gt_eq: ≤
value: 0.5

change: U13A C27G A42U
lt_gt_eq: =
value: 0.671

change: U16C A37G A42C G67A
lt_gt_eq: ≤
value: 0.5

change: C4G G6C C34G A42G G63C
lt_gt_eq: ≤
value: 0.5

change: A14U A15G C24U C31U C61U
lt_gt_eq: ≤
value: 0.5

change: C5U A14U G17C C33U G52C G63A
lt_gt_eq: ≤
value: 0.5

change: U13A A42C C66U
lt_gt_eq: =
value: 0.76

change: C46U A70C
lt_gt_eq: =
value: 0.976

change: C5A C22G G25A
lt_gt_eq: ≤
value: 0.5

change: A20C C27U A69U
lt_gt_eq: =
value: 0.81

change: G12A U47G U53A C60A
lt_gt_eq: ≤
value: 0.5

change: G10U A69C
lt_gt_eq: =
value: 0.827

change: C31A C34U C61G
lt_gt_eq: =
value: 0.609

change: C4G G10C G12C A21C G48C A57G G68C
lt_gt_eq: =
value: 0.519

change: G10A C30U G63A
lt_gt_eq: =
value: 0.538

change: C27A A57G G63A
lt_gt_eq: =
value: 0.551

change: A14C C30G A37G A45G U59C G67C
lt_gt_eq: ≤
value: 0.5

change: C31U U32C C33U
lt_gt_eq: =
value: 0.667

change: U13G A21U C22G U35A A65G
lt_gt_eq: ≤
value: 0.5

change: G6A C30U U54A
lt_gt_eq: ≤
value: 0.5

change: U2G C31U U54G
lt_gt_eq: ≤
value: 0.5

change: G9C A14C G44C U47C A57C
lt_gt_eq: ≤
value: 0.5

change: U7G A65G
lt_gt_eq: =
value: 1.03

change: C33A A37C
lt_gt_eq: ≤
value: 0.5

change: C5A C33U C46G
lt_gt_eq: ≤
value: 0.5

change: U3C C11U G56A
lt_gt_eq: =
value: 0.742

change: U2C G25A A42U C55G
lt_gt_eq: ≤
value: 0.5

change: A14G C34G A45U
lt_gt_eq: ≤
value: 0.5

change: G39A A42C C66U
lt_gt_eq: =
value: 0.542

change: C5G C11G U35C
lt_gt_eq: =
value: 0.643

change: C29U C33G G44C U64C
lt_gt_eq: ≤
value: 0.5

change: A37U C61U
lt_gt_eq: =
value: 0.771

change: G9U C27U C29A C31A
lt_gt_eq: ≤
value: 0.5

change: G6C G23C C31G
lt_gt_eq: ≤
value: 0.5

change: C11G A36C C46U
lt_gt_eq: ≤
value: 0.5

change: C4U C5G G12A A14U U54A A57U
lt_gt_eq: ≤
value: 0.5

change: C5G C22G A45G A65U
lt_gt_eq: ≤
value: 0.5

change: U2C C30A U47C A65C C66G
lt_gt_eq: ≤
value: 0.5

change: G25C C33G A43C A57C G63C
lt_gt_eq: ≤
value: 0.5

change: G12C C33U C46G U54A
lt_gt_eq: ≤
value: 0.5

change: U2G A43C
lt_gt_eq: =
value: 1.07

change: C46G U59G C61G
lt_gt_eq: ≤
value: 0.5

change: G58A C62U G63A
lt_gt_eq: =
value: 0.621

change: G38C U53C A57U
lt_gt_eq: ≤
value: 0.5

change: U47A C55G C66G
lt_gt_eq: =
value: 0.639

change: U7A U13A A21U A45U
lt_gt_eq: =
value: 0.649

change: G23A G38A G67C
lt_gt_eq: ≤
value: 0.5

change: C5U A21U C30G C66A
lt_gt_eq: =
value: 0.552

change: G67A A69U
lt_gt_eq: =
value: 0.733

change: A37U G38C C61U
lt_gt_eq: ≤
value: 0.5

change: A20U A70C
lt_gt_eq: =
value: 0.977

change: U8C C11U G17C C31A A65C
lt_gt_eq: ≤
value: 0.5

change: U35G G51A A65C
lt_gt_eq: =
value: 0.622

change: A21G C24U G51C
lt_gt_eq: ≤
value: 0.5

change: G18C C27U G68C
lt_gt_eq: =
value: 0.548

change: C4G G17A U26C U28C A40G A70C
lt_gt_eq: ≤
value: 0.5

change: C5G A14G A21U A57U
lt_gt_eq: ≤
value: 0.5

change: U3A C31U U35G C62U
lt_gt_eq: ≤
value: 0.5

change: C31U U47G
lt_gt_eq: =
value: 0.526

change: U59A G68A
lt_gt_eq: =
value: 0.791

change: C27U C33G A43U C60G
lt_gt_eq: ≤
value: 0.5

change: U7C U19G G51A U59A C66A
lt_gt_eq: ≤
value: 0.5

change: U3A G25C U47A
lt_gt_eq: =
value: 0.547

change: U13C G58C A69U
lt_gt_eq: =
value: 0.7

change: A21G G23A A57C A65C A70C
lt_gt_eq: ≤
value: 0.5
